Test: Drug level in HCT116 bearing SCID mice plasma at 25 mg/kg, iv after 1 min
Format: ADME, organism-based
Set-up: dose 25 mg/kg, route intravenous
Conditions: mouse

Molecule	concentration at 1 min [µg/mL]
C=C1C[C@H](C)C[C@@H]2CC=C[C@@H](C/C=C\C(=O)O[C@H]([C@@H](O)/C=C/[C@@H]3CC(C)=CCO3)C[C@@H]3O[C@H]3[C@@H](O)C1)O2 [FIJIANOLIDE B]	160
